System: Human immunodeficiency virus 1
Test: Antiviral activity against HIV1 harboring reverse transcriptase Y188L mutant
Type: functional, organism-based
IC50 values by entry

{"Mol Smiles": "Cc1cc(C#N)cc(C)c1Oc1nc(Nc2ccc(C#N)cc2)ncc1Br", "System Name": "Human immunodeficiency virus 1", "IC50 / nM": 5.9}
{"Mol Smiles": "Cc1cc(C#N)cc(C)c1Oc1ccnc(Nc2ccc(C#N)cc2)n1", "System Name": "Human immunodeficiency virus 1", "IC50 / nM": 19}

---

Assay: Half life in plasma
Assay type: ADME, cell-free
Observable: half-life (h)

{"Compound": "Cc1cc(C#N)cc(C)c1Oc1nc(Nc2ccc(C#N)cc2)nc(N)c1Br [ETRAVIRINE]", "Reported Value": 30}

---

Experiment: Selectivity index, ratio of cytotoxic concentration for human MT4 cells to IC50 for HIV1 3B
Assay type: toxicity, cell-based
Details: read-out: Selectivity Index
Listed next: entries and their corresponding selectivity ratio.
Observable: selectivity ratio

{"Mol Smiles": "CC(C)=CCN1Cc2cccc3[nH]c(=S)n(c23)C[C@@H]1C", "Reported Value": 31100}
{"Mol Smiles": "Cc1cn([C@H]2C[C@H](N=[N+]=[N-])[C@@H](CO)O2)c(=O)[nH]c1=O", "Reported Value": 6200}

---

Test: Half life in HIV-infected patient plasma
Assay type: ADME, organism-based
Details: human

{"Mol Smiles": "Cc1cc(/C=C/C#N)cc(C)c1Nc1ccnc(Nc2ccc(C#N)cc2)n1", "half-life (h)": 48}

---

Tested on: Human immunodeficiency virus 1
Experiment: Antiviral activity against HIV1 harboring reverse transcriptase L100I mutant
Assay type: functional, organism-based
// reported IC50 for each item listed
Observable: IC50

{"Mol Smiles": "Cc1cc(C#N)cc(C)c1Oc1nc(Nc2ccc(C#N)cc2)ncc1Br", "System Name": "Human immunodeficiency virus 1", "Reported Value": "6.6 nM"}
{"Mol Smiles": "Cc1cc(C#N)cc(C)c1Oc1ccnc(Nc2ccc(C#N)cc2)n1", "System Name": "Human immunodeficiency virus 1", "Reported Value": "73 nM"}

---

Assay: Half life in HIV1-infected patient
Format: ADME, organism-based
Settings: human, in vivo

{"Mol Smiles": "O=C(CSc1nnc(Br)n1-c1ccc(C2CC2)c2ccccc12)Nc1ccc(C(=O)[O-])cc1Cl.[K+]", "Unit Tag": "h", "half-life": 11}

---

Test system: Human immunodeficiency virus 1
Assay: Antiviral activity against HIV1 harboring reverse transcriptase K103N/Y181C mutant
Type: functional, organism-based

{"Molecule": "Cc1cc(C#N)cc(C)c1Oc1nc(Nc2ccc(C#N)cc2)nc(N)c1Br [ETRAVIRINE]", "Unit Tag": "nM", "IC50": 4.3}
{"Molecule": "Cc1cc(C#N)cc(C)c1Oc1nc(Nc2ccc(C#N)cc2)ncc1Br", "Unit Tag": "nM", "IC50": 25}
{"Molecule": "Cc1cc(C#N)cc(C)c1Oc1ccnc(Nc2ccc(C#N)cc2)n1", "Unit Tag": "nM", "IC50": 94}
